Biological target: Serine/threonine-protein kinase mTOR (Homo sapiens)
Test: binders of mTOR FRB domain, biophysical, NMR (AID 1648)
Details: NMR binding to FRB domain, chemical shift
Active and inactive are the calls of the source. No rule for the calls is given here.
// reported Kd for each item listed

In the examples that follow, each entry is paired with its recorded Kd.
>>> recorded_measurement("Nc1cccc2cccnc12")
"> 4 mM (inactive)"
>>> recorded_measurement("COC(=O)C[C@H]1C2(C)CC34OC5(C)O[C@@]6([C@H](OC(C)=O)C(OC(C)=O)[C@]7(C)C(/C(=C(/O)C(C)C)C(=O)O[C@H]7c7ccoc7)[C@@]6(O5)[C@H](OC(C)=O)[C@@]3(O)C2OC(=O)C(C)C)[C@]14C (some centres undefined)")
"> 4 mM (inactive)"
>>> recorded_measurement("Cc1noc(C)c1C(=O)Nc1cccnc1")
"> 4 mM (inactive)"
>>> recorded_measurement("Cc1nc(N)sc1C(=O)N/N=C/c1ccncc1")
"> 4 mM (inactive)"

Notebook entry, Serine/threonine-protein kinase mTOR (Homo sapiens) assay: Kd of COC(=O)[C@]1(C)CC[C@]2(C)CC[C@]3(C)C4=CCc5c(cc(O)c(O)c5C)[C@]4(C)CC[C@@]3(C)C2C1 (some centres undefined) = ?
> 4 mM (inactive)

Notebook entry, Serine/threonine-protein kinase mTOR (Homo sapiens) assay: Kd of "NC(N)=Nc1nc2ccccc2o1" = ?
> 4 mM (inactive)

Notebook entry, Serine/threonine-protein kinase mTOR (Homo sapiens) assay: Kd of "O=C(Oc1ccc(-c2nnco2)cc1)N1CCCCC1" = ?
> 4 mM (inactive)

Notebook entry, Serine/threonine-protein kinase mTOR (Homo sapiens) assay: Kd of COC(=O)CC1C(C)(C)C(OC(C)=O)[C@@H]2[C@@H](OC(C)=O)[C@]34O[C@@]2(O)[C@]1(C)C3CC[C@]1(C)C4=CC(=O)O[C@H]1c1ccoc1 (some centres undefined) = ?
> 4 mM (inactive)

Notebook entry, Serine/threonine-protein kinase mTOR (Homo sapiens) assay: Kd of "CC1(C)Cn2c(nnc2-c2ccccc2)S1" = ?
> 4 mM (inactive)

Notebook entry, Serine/threonine-protein kinase mTOR (Homo sapiens) assay: Kd of "CCN1CCn2c1nc(N1CCOCC1)nc2=O" = ?
> 4 mM (inactive)

Notebook entry, Serine/threonine-protein kinase mTOR (Homo sapiens) assay: Kd of CN1CCCCC1c1ccc(-c2cccnc2)nc1 (centres undefined) = ?
> 4 mM (inactive)

Notebook entry, Serine/threonine-protein kinase mTOR (Homo sapiens) assay: Kd of "O=C1C=C(Nc2ccccc2O)c2ccccc2C1=O" = ?
> 4 mM (inactive)

Notebook entry, Serine/threonine-protein kinase mTOR (Homo sapiens) assay: Kd of "COC(=O)CSc1n[nH]c(N)n1" = ?
> 4 mM (inactive)

Notebook entry, Serine/threonine-protein kinase mTOR (Homo sapiens) assay: Kd of "Nc1cc(N)nc(SCc2ccccc2)n1" = ?
> 4 mM (inactive)

Notebook entry, Serine/threonine-protein kinase mTOR (Homo sapiens) assay: Kd of "O=C(c1cnsn1)N1CCN(c2ccccn2)CC1" = ?
> 4 mM (inactive)

Notebook entry, Serine/threonine-protein kinase mTOR (Homo sapiens) assay: Kd of "Nc1nc(-c2ccccc2)cc(=O)[nH]1" = ?
> 4 mM (inactive)

Notebook entry, Serine/threonine-protein kinase mTOR (Homo sapiens) assay: Kd of "NC(=O)CSc1nc2[nH]ncc2c(=O)[nH]1" = ?
> 4 mM (inactive)

Notebook entry, Serine/threonine-protein kinase mTOR (Homo sapiens) assay: Kd of "O=C(Nc1cccnc1)c1c(F)c(F)c(F)c(F)c1F" = ?
> 4 mM (inactive)

Notebook entry, Serine/threonine-protein kinase mTOR (Homo sapiens) assay: Kd of "Cc1cc(=O)n2[nH]c(C)cc2n1" = ?
> 4 mM (inactive)

Notebook entry, Serine/threonine-protein kinase mTOR (Homo sapiens) assay: Kd of "O=C1Nc2ccc(S(=O)(=O)NCCO)c3cccc1c23" = ?
> 4 mM (inactive)

Notebook entry, Serine/threonine-protein kinase mTOR (Homo sapiens) assay: Kd of "Nc1nc(SCc2ccccc2)ns1" = ?
> 4 mM (inactive)

Measured values drawn from PubChem BioAssay AID1648 for this set.
